Assay: chemical genetic growth profiling, strain panel (AID 1159580);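 further: tested at 20 µM; growth read once vehicle control cultures reached saturation at 30 °C; 1 = growth at the plate median or of vehicle wells; lower values mean less growth of the strain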
Details: S. cerevisiae deletion strains, growth OD, locus YNL207W, strain RIO2, hits give low values
Screen size: about 5,500 compounds; about 2,000 (36%) were called active. Roughly 18% stayed inconclusive and do not appear here. Some of the results follow.
API: label(entry) gives satisfied if the entry's normalized growth is strictly smaller than 1; on equality or larger values it gives not satisfied.

>  <compound>
CC1(C)OC(=O)C(=Cc2cccn2-c2ccc(C(F)(F)F)cc2)C(=O)O1

>  <cat>
not satisfied

$$$$
>  <compound>
CC(C)(CCC(C)(C)N1C(=O)c2cccc3cccc(c23)C1=O)N1C(=O)c2cccc3cccc(c23)C1=O

>  <cat>
satisfied

$$$$
>  <compound>
O=c1c2ccccc2[nH]c(=S)n1-c1cccc(C(F)(F)F)c1

>  <cat>
satisfied

$$$$
>  <compound>
Cc1onc(-c2c(F)cccc2Cl)c1C(=O)ON=C1C2CC3CC(C2)CC1C3

>  <cat>
not satisfied

$$$$
>  <compound>
Cc1c(C(=S)Nc2ccccc2)sc2ccccc12

>  <cat>
satisfied

$$$$
>  <compound>
O=[N+]([O-])c1ccc2oc(C(O)c3cccc(Cl)c3)cc2c1 (configuration not stated)

>  <cat>
satisfied

$$$$

IN: Is it true that normalized growth reported for `CCCCCCCCCCCC(=O)NOC(=O)c1c(-c2c(Cl)cccc2Cl)noc1C` is less than 1?
OUT: satisfied

----------
Test: chemical genetic growth profiling, strain panel (AID 1159580);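 further: tested at 20 µM; growth read once vehicle control cultures reached saturation at 30 °C; 1 = growth at the plate median or of vehicle wells; lower values mean less growth of the strain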
Conditions: S. cerevisiae deletion strains, growth OD, locus YHR030C, strain SLT2
The campaign covered roughly 5,500 compounds. About 2,000 (36%) were called active. Inconclusive results (about 18%) are left out. Rule as the data show it: active = normalized growth mostly below about 0.91 (no sharp cut-off); inconclusive = no clear call, values can overlap the other calls; inactive = mostly above about 0.92. Some of the results follow.
The categories you may choose from are t (active), f (inactive)

Observe how each entry below is paired with its result.
>  <compound>
Cc1ccc(-n2cccc2)c(NC(=S)Nc2ccc(Br)cc2OC(F)(F)F)c1

>  <cat>
t

$$$$
>  <compound>
CC(C)(C)S(=O)(=O)/C(C#N)=C/N1CCCCC1

>  <cat>
f

$$$$
>  <compound>
COC(=O)c1sccc1-c1ccc(/C=C/[N+](=O)[O-])o1

>  <cat>
t

$$$$
>  <compound>
C[C@H]1COC2=C1C(=O)C(=O)c1c2ccc2c1CCCC2(C)C

>  <cat>
t

$$$$
>  <compound>
COCCCNC(=S)Nc1ccc(C)cc1C

>  <cat>
f

$$$$
>  <compound>
CN1c2ccccc2C(=O)NC1c1ccc([N+](=O)[O-])s1 (stereo unspecified)

>  <cat>
f

$$$$
>  <compound>
CC1C[C@H]2CC(=O)[C@H]3CCCN4CCC[C@H]2[C@]34C1 (stereo partly specified)

>  <cat>
f

$$$$
>  <compound>
Cc1c(S(=O)(=O)O)oc2c1C(=O)C(=O)c1c-2ccc2c1CCCC2(C)C

>  <cat>
f

$$$$
>  <compound>
C[C@H]1CC[C@@H](C(C)(C)O)CC2=C1CC[C@@H]2C

>  <cat>
t

$$$$
>  <compound>
COC(=O)c1sccc1-c1ccc(C(C)=O)o1

>  <cat>
f

$$$$

Let us examine a further case.
IN: Lab log entry: CC(C)NCC(O)COc1cccc2ccccc12 (stereo unspecified) — outcome as called in the assay?
OUT: f

----------
The following compounds are listed with their measured normalized growth values.
Experiment: chemical genetic growth profiling, strain panel (AID 1159580);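 further: tested at 20 µM; growth read once vehicle control cultures reached saturation at 30 °C; 1 = growth at the plate median or of vehicle wells; lower values mean less growth of the strain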
Conditions: S. cerevisiae deletion strains, growth OD, locus YDL134C, strain PPH21, hits give low values
In all, about 5,500 compounds went through this assay and about 2,000 (36%) were called active. About 18% were inconclusive and are not listed. The list shows a part of the results.
The answer should be written as a number, with no unit following it.

Examples with answers:
>  <compound>
CC(C(=O)O)c1ccc(C(=O)c2cccs2)cc1 (configuration not stated)

>  <property.name>
normalized growth

>  <data.value>
1

$$$$
>  <compound>
COC(=O)C(O)c1ccccc1 (configuration not stated)

>  <property.name>
normalized growth

>  <data.value>
0.964

$$$$
>  <compound>
COC(=O)C(C)c1ccc(C(=O)c2cccs2)cc1 (configuration not stated)

>  <property.name>
normalized growth

>  <data.value>
0.996

$$$$
>  <compound>
O=c1[nH]oc2c1CCNC2

>  <property.name>
normalized growth

>  <data.value>
1.01

$$$$
>  <compound>
COc1cc2occ(-c3ccccc3)c(=O)c2c(OC)c1C

>  <property.name>
normalized growth

>  <data.value>
0.963

$$$$

IN: Find the measured normalized growth of CC12NC(=O)NC1(C)NC(=O)N2 (configuration not stated) and report it.
OUT: 1.02

IN: Find the measured normalized growth of `Cn1c(=O)c2[nH]cnc2n(C)c1=O` and report it.
OUT: 0.985
